The origin of these recorded values is patent US20250276077A1.

# measurementTarget: Human EphA2 (ephrin receptor A2) on cells (human, UniProt P29317 25-976)
# Sequence (P29317 25-976): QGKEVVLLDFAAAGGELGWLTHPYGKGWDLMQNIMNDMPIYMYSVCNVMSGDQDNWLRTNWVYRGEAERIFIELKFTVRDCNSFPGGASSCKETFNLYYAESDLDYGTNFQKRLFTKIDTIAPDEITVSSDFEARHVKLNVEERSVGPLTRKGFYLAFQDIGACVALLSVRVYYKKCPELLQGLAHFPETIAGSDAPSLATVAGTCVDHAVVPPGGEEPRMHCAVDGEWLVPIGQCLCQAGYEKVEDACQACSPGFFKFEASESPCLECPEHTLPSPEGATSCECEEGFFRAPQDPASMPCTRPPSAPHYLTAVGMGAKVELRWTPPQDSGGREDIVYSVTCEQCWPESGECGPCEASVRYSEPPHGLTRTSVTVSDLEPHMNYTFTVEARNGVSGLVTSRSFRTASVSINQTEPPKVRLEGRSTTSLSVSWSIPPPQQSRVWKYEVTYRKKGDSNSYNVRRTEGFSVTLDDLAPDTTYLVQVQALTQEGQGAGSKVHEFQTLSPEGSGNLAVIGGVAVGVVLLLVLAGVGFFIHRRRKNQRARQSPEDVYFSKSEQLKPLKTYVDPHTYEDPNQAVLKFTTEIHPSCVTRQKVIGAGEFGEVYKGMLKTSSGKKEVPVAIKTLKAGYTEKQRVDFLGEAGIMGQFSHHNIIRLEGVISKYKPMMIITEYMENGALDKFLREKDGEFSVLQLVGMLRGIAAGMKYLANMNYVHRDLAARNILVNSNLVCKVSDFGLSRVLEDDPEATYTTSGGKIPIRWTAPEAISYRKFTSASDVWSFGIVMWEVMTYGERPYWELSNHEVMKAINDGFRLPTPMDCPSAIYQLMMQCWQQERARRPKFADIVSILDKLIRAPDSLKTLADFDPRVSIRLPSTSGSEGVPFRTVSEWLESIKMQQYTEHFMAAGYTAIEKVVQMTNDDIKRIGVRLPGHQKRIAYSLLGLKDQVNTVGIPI
# methodSummary: flow cytometry on A549 cells
readoutName: EC50
Give your result as the value with the unit written after it.

Recorded EC50 for AB-009812 (antibody, mouse IgG2a, V domains shown) VH: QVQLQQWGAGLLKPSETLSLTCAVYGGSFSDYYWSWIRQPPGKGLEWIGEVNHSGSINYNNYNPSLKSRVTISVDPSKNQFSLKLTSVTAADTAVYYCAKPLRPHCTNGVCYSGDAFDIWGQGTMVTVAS VL: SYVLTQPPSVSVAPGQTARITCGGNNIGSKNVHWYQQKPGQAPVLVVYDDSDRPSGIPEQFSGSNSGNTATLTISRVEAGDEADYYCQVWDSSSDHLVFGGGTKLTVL , please?
9.6 nM
